test: Stability of peptides in simulated intestinal fluid (pH 7.5); assay type: in vitro ADME; conditions: simulated gi fluid, pH 7.5
Where a SMILES comes first, the peptide text is derived from it. [ ]: non-standard residue; d: D form. ξ: configuration not given here. ξαMePhe(2,6-F2) = CC(N)(Cc1c(F)cccc1F)C(=O)O; ξαMePhe(2-F) = CC(N)(Cc1ccccc1F)C(=O)O; Nle = CCCC[C@H](N)C(=O)O; Aib = CC(C)(N)C(=O)O
endpoint: half-life

Documented half-life of CCCC[C@H](NC(=O)C(C)(Cc1ccccc1F)NC(=O)[C@H](CCC(N)=O)NC(=O)[C@@H](NC(=O)[C@H](CCC(=O)O)NC(=O)C(C)(C)NC(=O)[C@@H](NC(=O)C(C)(C)N)C(C)C)[C@@H](C)CC)C(=O)N[C@@H](Cc1c[nH]cn1)C(=O)N[C@@H](CCC(N)=O)C(=O)NC(C)(Cc1c(F)cccc1F)C(=O)NC(C)(C)C(=O)NC(C)(C)C(=O)NC(C)(Cc1ccccc1F)C(N)=O (stereo partly shown) [Seq. ID. 490] (H-[Aib]V[Aib]EIQ[ξαMePhe(2-F)][Nle]HQ[ξαMePhe(2,6-F2)][Aib][Aib][ξαMePhe(2-F)]-NH2) : > 1440 min
